Data provenance: patent US20210261512A1

Below, each of the molecules is paired with its reported log10 half-life value.
# experiment description: PK, intravenous administration
# Format: in vivo
# test conditions: rat, plasma, male Sprague Dawley rats, dose about 1 mg/kg
In plain terms, each number is the log10 of measured half-life in min.

CN1CCC2(C1)CN(S(=O)(=O)c1nnc(Nc3c4c(cc5c3CCC5)CCC4)[nH]1)C2 [Example 274]: 1.99
CN(C)C1CCN(S(=O)(=O)c2nnc(Nc3c4c(cc5c3CCC5)CCC4)[nH]2)CC1 [Example 118]: 1.92
CN(C)Cc1ccc(S(=O)(=O)c2nnc(Nc3c4c(cc5c3CCC5)CCC4)[nH]2)cc1 [Example 43]: 1.62
CN1CCC(Oc2cc(-c3ccc4c(c3Nc3nnc(S(C)(=O)=O)[nH]3)CCC4)ccn2)CC1 [Example 235]: 2.11
CN1CCCC1CCS(=O)(=O)c1nnc(Nc2c3c(cc4c2CCC4)CCC3)[nH]1 (stereo not shown) [Example 60]: 1.78
O=S(=O)(c1ccccc1)c1nnc(Nc2c3c(cc4c2CCC4)CCC3)[nH]1 [Example 40]: 1.73

[ask] What value of log10 half-life has been reported for the following molecule? CCN(CC)CCNS(=O)(=O)c1nnc(Nc2c3c(cc4c2CCC4)CCC3)[nH]1 [Example 81]
[reply] 1.95

[ask] Which log10 half-life value is on record for COc1cc(-c2cc(F)cc(C(C)C)c2Oc2nnc(S(=O)(=O)N3CC4(CCN(C)C4)C3)[nH]2)ccn1 [Example 250] ?
[reply] 1.19

[ask] Query: log10 half-life; subject: CC(C)(O)Cn1ccc(S(=O)(=O)c2nnc(Nc3c4c(cc5c3CCC5)CCC4)[nH]2)n1 [Example 328]
[reply] 1.59

[ask] GET /values?readout=log10 half-life&item= CNC1CCN(S(=O)(=O)c2nnc(Nc3c4c(cc5c3CCC5)CCC4)[nH]2)CC1 [Example 130]
[reply] 2.67

[ask] // returns reported log10 half-life for input COc1cc(-c2ccc3c(c2Nc2nnc(S(=O)(=O)c4ccccc4C#N)[nH]2)CCC3)ccn1 [Example 310]
[reply] 1.44

[ask] Look at this molecule and give its reported log10 half-life. COc1cc(-c2cc(F)c3c(c2Nc2nnc(S(=O)(=O)N4CC5(CCN(C)C5)C4)[nH]2)CCC3)ccn1 [Example 299]
[reply] 1.90

[ask] Any idea what its log10 half-life is? The molecule is CC(C)c1cc(F)cc(C(C)C)c1Nc1nnc(S(=O)(=O)N2CCC(N(C)C)CC2)[nH]1 [Example 303]
[reply] 2.17

[ask] What does the record list as log10 half-life for COc1cc(-c2ccc3c(c2Nc2nnc(S(=O)(=O)N4CCC(N(C)C)CC4)[nH]2)CCO3)ccn1 [Example 226] ?
[reply] 1.67
